System: SJSA-1 cells
Assay: Cell lysis by peptidomimetic macrocycles (LDH release)
Assay type: cell-based
Conditions: 50 μM, SJSA-1, 1 h
Recorded Metric: 50 μM % Lysed cells (1 h LDH) (%)
Value expressed in %; do not type the unit.

Input CC(=O)N[C@@H](CC(C)C)C(=O)N[C@H](C(=O)N[C@@H](Cc1ccccc1)C(=O)N[C@]1(C)CCCCCCC=CCCC[C@@](C)(C(=O)N[C@@H](C)C(=O)N[C@@H](C)C(=O)N[C@H](C(=O)N[C@H](C)C(N)=O)C(C)C)NC(=O)[C@H](CC(C)C)NC(=O)[C@H](CCC(N)=O)NC(=O)[C@H](C)NC(=O)[C@H](Cc2c[nH]c3ccccc23)NC(=O)[C@H](Cc2ccc(O)cc2)NC(=O)[C@H](CCC(=O)O)NC1=O)[C@@H](C)O (single isomer, unassigned) . Output 50 μM % Lysed cells (1 h LDH): 11

====

Tested on: SJSA-1 cells
Test: Cell lysis by peptidomimetic macrocycles (LDH release)
Type: cell-based
Settings: 25 μM, SJSA-1, 1 h
Bridge positions count the residues as written; N and C are the ends. Square brackets hold non-standard residues; d marks the D form. Peptide text beside a SMILES is read from it. R8 = C=CCCCCCC[C@@](C)(N)C(=O)O; S5 = C=CCCC[C@](C)(N)C(=O)O
Recorded Metric: 25 μM % Lysed cells (1 h LDH) (%)
Field: numeric (%). Do not append units.

>  <Compound>
CC(=O)N[C@@H](CC(C)C)C(=O)N[C@H](C(=O)N[C@@H](Cc1ccccc1)C(=O)N[C@]1(C)CCCCCCC=CCCC[C@@](C)(C(=O)N[C@@H](C)C(=O)N[C@@H](C)C(=O)N[C@@H](Cc2c[nH]c3ccccc23)C(=O)N[C@H](C)C(N)=O)NC(=O)[C@H](CC(C)C)NC(=O)[C@H](CCC(N)=O)NC(=O)[C@H](C)NC(=O)[C@H](Cc2c[nH]c3ccccc23)NC(=O)[C@H](Cc2ccc(O)cc2)NC(=O)[C@H](C)NC1=O)[C@@H](C)O [compound 211] (Ac-LTF[R8]AYWAQL[S5]AAW[dA]-NH2; staple 4-11)

>  <25 μM % Lysed cells (1 h LDH) / %>
3

$$$$

Lookup result for CC(=O)N[C@@H](CC(C)C)C(=O)N[C@H](C(=O)N[C@@H](Cc1ccccc1)C(=O)N[C@]1(C)CCCCCCC=CCCC[C@@](C)(C(=O)N[C@@H](C)C(=O)N[C@@H](C)C(=O)N[C@@H](Cc2ccccc2)C(=O)N[C@H](C)C(N)=O)NC(=O)[C@H](CC(C)C)NC(=O)[C@H](CCC(N)=O)NC(=O)[C@H](C)NC(=O)[C@H](Cc2c[nH]c3ccccc23)NC(=O)[C@H](Cc2ccc(O)cc2)NC(=O)[C@H](CCC(=O)O)NC1=O)[C@@H](C)O (single isomer, unassigned) [compound 218] ; measured 25 μM % Lysed cells (1 h LDH): −4

Noted for CC(=O)N[C@@H](C)C(=O)N[C@@H](C)C(=O)N[C@@H](CC(C)C)C(=O)N[C@H](C(=O)N[C@@H](Cc1ccccc1)C(=O)N[C@]1(C)CCCCCCC=CCCC[C@@](C)(C(=O)N[C@@H](CO)C(=O)N[C@@H](C)C(=O)N[C@@H](C)C(=O)N[C@@H](C)C(=O)N[C@H](C)C(N)=O)NC(=O)[C@H](CC2CCC2)NC(=O)[C@H](CCC(N)=O)NC(=O)[C@H](C)NC(=O)[C@H](Cc2c[nH]c3ccccc23)NC(=O)[C@H](Cc2ccc(O)cc2)NC(=O)[C@H](CCC(=O)O)NC1=O)[C@@H](C)O (single isomer, unassigned) : its 25 μM % Lysed cells (1 h LDH) reads 0

Record CC(=O)N[C@@H](CC(C)C)C(=O)N[C@H](C(=O)N[C@@H](Cc1ccccc1)C(=O)N[C@]1(C)CCCCCCC=CCCC[C@@](C)(C(=O)N[C@@H](CO)C(=O)N[C@@H](C)C(=O)N[C@@H](C)C(N)=O)NC(=O)[C@H](CC2CCCCC2)NC(=O)[C@H](CCC(N)=O)NC(=O)[C@H](C)NC(=O)[C@H](Cc2c[nH]c3ccccc23)NC(=O)[C@H](Cc2ccc(O)cc2)NC(=O)[C@H](CCC(=O)O)NC1=O)[C@@H](C)O (single isomer, unassigned) . Reported 25 μM % Lysed cells (1 h LDH): −1

====

Listed next: entries and their corresponding caspase 30 μM.
System: Caspase 3
Assay: Caspase 3 detection assay in SJSA1 cells
Format: cell-based
Details: 30 μM, SJSA1, 48 h, Caspase 3 activation over DMSO-treated cells
Lab note: jot the number down without any unit.

>  <Compound>
CC(=O)N[C@@H](CC(C)C)C(=O)N[C@H](C(=O)N[C@@H](Cc1ccccc1)C(=O)N[C@]1(C)CCCCCCC=CCCC[C@@](C)(C(=O)N[C@@H](CO)C(=O)N[C@H](C(=O)N[C@@H](C)C(N)=O)C(C)C)NC(=O)[C@H](CC(C)C)NC(=O)[C@H](CCC(N)=O)NC(=O)[C@H](C)NC(=O)[C@H](Cc2c[nH]c3ccccc23)NC(=O)[C@H](Cc2ccc(O)cc2)NC(=O)[C@H](C(C)C)NC1=O)[C@@H](C)O (single isomer, unassigned) [compound 139]

>  <caspase 30 μM>
18

$$$$

Attention now shifts to the item below.
Entry under test: CC[C@H](C)[C@H](NC(=O)[C@H](C)NC(=O)[C@H](C)NC(=O)[C@]1(C)CCCC=CCCCCCC[C@@](C)(NC(=O)[C@H](Cc2ccccc2)NC(=O)[C@@H](NC(=O)[C@H](CC(C)C)NC(C)=O)[C@@H](C)O)C(=O)N[C@@H](CCC(=O)O)C(=O)N[C@@H](Cc2c[nH]cn2)C(=O)N[C@@H](Cc2c[nH]c3ccccc23)C(=O)N[C@@H](C)C(=O)N[C@@H](CCC(N)=O)C(=O)N[C@@H](CC(C)C)C(=O)N1)C(=O)N[C@H](C)C(N)=O (single isomer, unassigned) [compound 223] . Its caspase 30 μM was 18

====

Test system: SJSA-1 cells
Test: Cell lysis by peptidomimetic macrocycles (LDH release)
Assay type: cell-based
Conditions: 50 μM, SJSA-1, 1 h
Bridge positions count the residues as written; N and C are the ends. Square brackets hold non-standard residues; d marks the D form. Peptide text beside a SMILES is read from it. R8 = C=CCCCCCC[C@@](C)(N)C(=O)O; hLeu = CC(C)CC[C@H](N)C(=O)O; S5 = C=CCCC[C@](C)(N)C(=O)O
Recorded Metric: 50 μM % Lysed cells (1 h LDH) (%)
// note: answer is a bare numeric in %

>  <Compound>
CC(=O)N[C@@H](CC(C)C)C(=O)N[C@H](C(=O)N[C@@H](Cc1ccccc1)C(=O)N[C@]1(C)CCCCCC/C=C/CCC[C@@](C)(C(=O)N[C@@H](CO)C(=O)N[C@@H](C)C(=O)N[C@@H](C)C(N)=O)NC(=O)[C@H](CCC(C)C)NC(=O)[C@H](CCC(N)=O)NC(=O)[C@H](C)NC(=O)[C@H](Cc2c[nH]c3ccccc23)NC(=O)[C@H](Cc2ccc(O)cc2)NC(=O)[C@H](C)NC1=O)[C@@H](C)O [compound 115] (Ac-LTF[R8]AYWAQ[hLeu][S5]SAA-NH2; staple (E) 4-11)

>  <Tgt>
SJSA-1 cells

>  <Test Result>
6

$$$$

Next compound, 50 μM % Lysed cells (1 h LDH) to be filled in.
Given item CC(=O)N[C@@H](CC(C)C)C(=O)N[C@H](C(=O)N[C@@H](Cc1ccccc1)C(=O)N[C@]1(C)CCCCCC/C=C\CCC[C@@](C)(C(=O)N[C@@H](CO)C(=O)N[C@@H](C)C(=O)N[C@@H](C)C(N)=O)NC(=O)[C@H](CCC(C)C)NC(=O)[C@H](CCC(N)=O)NC(=O)[C@H](C)NC(=O)[C@H](Cc2c[nH]c3ccccc23)NC(=O)[C@H](Cc2ccc(O)cc2)NC(=O)[C@H](C)NC1=O)[C@@H](C)O [compound 114] (Ac-LTF[R8]AYWAQ[hLeu][S5]SAA-NH2; staple (Z) 4-11) , the value recorded as its 50 μM % Lysed cells (1 h LDH) is 9

====

Test system: Caspase 3
Experiment: Caspase 3 detection assay in SJSA1 cells
Type: cell-based
Conditions: 0.3 μM, SJSA1, 48 h, Caspase 3 activation over DMSO-treated cells
Bridge positions count the residues as written; N and C are the ends. Square brackets hold non-standard residues; d marks the D form. Peptide text beside a SMILES is read from it. R8 = C=CCCCCCC[C@@](C)(N)C(=O)O; Cba = N[C@@H](CC1CCC1)C(=O)O; S5 = C=CCCC[C@](C)(N)C(=O)O
# Lookup of reported caspase 0.3 μM keyed by entry
Answer as a number with no unit attached.

For reference, reported caspase 0.3 μM for CC(=O)N[C@@H](CC(C)C)C(=O)N[C@H](C(=O)N[C@@H](Cc1ccccc1)C(=O)N[C@]1(C)CCCCCCC=CCCC[C@@](C)(C(=O)N[C@@H](CO)C(=O)N[C@@H](C)C(=O)N[C@@H](Cc2ccccc2)C(=O)N[C@@H](C)C(N)=O)NC(=O)[C@H](CC2CCC2)NC(=O)[C@H](CCC(N)=O)NC(=O)[C@H](C)NC(=O)[C@H](Cc2c[nH]c3ccccc23)NC(=O)[C@H](Cc2ccc(O)cc2)NC(=O)[C@H](CCC(=O)O)NC1=O)[C@@H](C)O [compound 242] (Ac-LTF[R8]EYWAQ[Cba][S5]SAFA-NH2; staple 4-11) stands at 1

// field: caspase 0.3 μM; key: CC(=O)N[C@@H](CC(C)C)C(=O)N[C@H](C(=O)N[C@@H](Cc1ccccc1)C(=O)N[C@]1(C)CCCCCCC=CCCC[C@@](C)(C(=O)N[C@@H](CO)C(=O)N[C@H](C(=O)N[C@@H](CO)C(N)=O)C(C)C)NC(=O)[C@H](CC(C)C)NC(=O)[C@H](CCC(N)=O)NC(=O)[C@H](C)NC(=O)[C@H](Cc2c[nH]c3ccccc23)NC(=O)[C@H](Cc2ccc(O)cc2)NC(=O)[C@H](C(C)C)NC1=O)[C@@H](C)O (single isomer, unassigned) ; value = 1
